Every entry's value here was drawn from patent US12247032B2.

Target: Recombinant human JAK2 kinase domain protein (Residues 812-1132) (Homo sapiens, UniProt O60674)
Construct: human JAK2 kinase domain protein (Residues 812-1132)
Sequence (O60674 812-1132): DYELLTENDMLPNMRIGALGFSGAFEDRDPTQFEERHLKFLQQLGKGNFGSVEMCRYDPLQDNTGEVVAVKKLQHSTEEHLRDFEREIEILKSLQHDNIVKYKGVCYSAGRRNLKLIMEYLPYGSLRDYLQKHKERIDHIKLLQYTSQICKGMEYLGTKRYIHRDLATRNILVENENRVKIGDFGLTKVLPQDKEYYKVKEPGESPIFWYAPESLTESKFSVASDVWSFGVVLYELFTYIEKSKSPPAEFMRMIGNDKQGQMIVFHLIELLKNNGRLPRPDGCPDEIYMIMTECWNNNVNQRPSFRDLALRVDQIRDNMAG
Experiment: JAK2 biochemical assay (microfluidic mobility shift, peptide phosphorylation)
Conditions: 25 μM ATP, 0.2 nM total JAK2; Ki calculated from Ki app (tight-binding, competitive); read-out: Biochem JAK2 Ki
measurement_name: Ki (nM)

Sample answers from the record:
Ask: # get_value(readout='Ki', item= CN(C)[C@H]1C[C@H](N2CC(n3nnc(Cn4cc(NC(=O)c5cnn6cccnc56)c(-c5cc(OC(F)F)ccc5OC(F)F)n4)n3)C2)C1 )
Reply: 0.54

Ask: Item under review: CN(C)CCn1nnnc1Cn1cc(NC(=O)c2cnn3cccnc23)c(-c2cc(OC(F)F)ccc2OC(F)F)n1 . Reported Ki?
Reply: 0.23

Ask: Data request, read-out Ki, for CN(C)C1CCN(CCn2nnnc2Cn2cc(NC(=O)c3cnn4cccnc34)c(-c3cc(OC(F)F)ccc3OC(F)F)n2)CC1
Reply: 0.97

Ask: Fill in the blank: the reported Ki of CN(C)CCN1CCC(n2nnc(Cn3cc(NC(=O)c4cnn5cccnc45)c(-c4cc(OC(F)F)ccc4OC(F)F)n3)n2)C1 (single isomer, unassigned) [Example 68] is ____.
Reply: 0.43

[1] O=C(Nc1cn(Cc2nnnn2C2CNC2)nc1-c1cc(OC(F)F)ccc1OC(F)F)c1cnn2cccnc12
[2] CN(C)C1(CCN2CC(n3nnc(Cn4cc(NC(=O)c5cnn6cccnc56)c(-c5cc(OC(F)F)ccc5OC(F)F)n4)n3)C2)CC1
Ask: Which is greater in Ki, the first item 1 or the second item 2 ? Response format: the label of the selected entry.
Reply: 2
(2: 0.41 nM, 1: 0.18 nM)

###

Target: Recombinant human JAK2 kinase domain protein (Residues 812-1132) (Homo sapiens, UniProt O60674)
Construct: human JAK2 kinase domain protein (Residues 812-1132)
Assay: JAK2 biochemical assay (microfluidic mobility shift, peptide phosphorylation)
Settings: 25 μM ATP, 0.2 nM total JAK2; Ki calculated from Ki app (tight-binding, competitive); read-out: Biochem JAK2 Ki
measurement_name: Ki (nM)

Ask: Quick check: Ki of O=C(Nc1cn(Cc2nnn(C3CNC3)n2)nc1-c1cc(Cl)ccc1OC(F)F)c1cnn2cccnc12 ?
Reply: 0.28

Ask: // returns reported Ki for input O=C(Nc1cn(Cc2nnnn2C2CCNCC2)nc1-c1cc(OC(F)F)ccc1OC(F)F)c1cnn2cccnc12
Reply: 0.91

Ask: Field request: Ki | item: CN1CCC[C@@H]1Cn1nnc(Cn2cc(NC(=O)c3cnn4cccnc34)c(-c3cc(OC(F)F)ccc3OC(F)F)n2)n1 (stereo in doubt)
Reply: 0.41

Ask: Quick one: Ki for O=C(Nc1cn(Cc2nnn(C3CNC3)n2)nc1-c1cc(OC(F)F)ccc1OC(F)F)c1cnn2cccnc12 ?
Reply: 0.27

Ask: Query (compound): CN(C)CCn1nnc(Cn2cc(NC(=O)c3cnn4cccnc34)c(-c3cc4c(cc3OC(F)F)NCCO4)n2)n1 ; field requested: Ki
Reply: 0.34

[I] CN(C)C1CCC(n2nnc(Cn3cc(NC(=O)c4cnn5cccnc45)c(-c4cc(OC(F)F)ccc4OC(F)F)n3)n2)CC1 (stereo not shown)
[II] NC1CCC(n2nnnc2Cn2cc(NC(=O)c3cnn4cccnc34)c(-c3cc(OC(F)F)ccc3OC(F)F)n2)CC1 (stereo not shown)
Ask: Quick one: lower Ki, I or II ? Bench note: the answer is the label of the chosen record.
Reply: I
